# system: human AspH (His6-AspH315–758) (Homo sapiens, UniProt Q12797)
# Construct: N-Terminally His6-tagged human AspH315–758 (His6-AspH315–758) was produced in Escherichia coli BL21 (DE3) cells; made in house; host or cells: Escherichia coli BL21 (DE3), pET-28a(+) vector
# test summary: SPE-MS AspH inhibition assay (hFX-CP101-119 substrate hydroxylation)
# Type: biochemical
# stated conditions: AspH-inhibitor screening, 384-well Plate 1
Starred links: 1 amine or outer side, 2 acyl side, 3 side chain; linkers in the order of their positions; H or OH if unused. Positions of bridges follow the written chain, without caps; N, C: chain ends. Non-standard residues stand in square brackets, D forms with d. Residues, ends and D or L forms follow the SMILES beside them. Chains are numbered I, II in the order given. Actinocin(9to1) = Cc1c2oc3c(C)ccc(C(=O)[*:1])c3nc-2c(C(=O)[*:2])c(N)c1=O; NMeV = CN[C@H](C(=O)O)C(C)C; Sar = CNCC(=O)O
observation type: Plate 1 (% inhibition) (%)

Below are worked cases with known answers.
molecule	units symbol	Plate 1 (% inhibition)
FC(F)c1nc2ccccc2n1-c1nc(N2CCOCC2)nc(N2CCOCC2)n1	%	-1.18
CCc1c(C(=O)C(N)=O)c2c(OCC(=O)O)cccc2n1Cc1ccccc1	%	9.84
Cc1c2oc3c(C)ccc(C(=O)N[C@@H]4C(=O)N[C@H](C(C)C)C(=O)N5CCC[C@H]5C(=O)N(C)CC(=O)N(C)[C@@H](C(C)C)C(=O)O[C@@H]4C)c3nc-2c(C(=O)N[C@@H]2C(=O)N[C@H](C(C)C)C(=O)N3CCC[C@H]3C(=O)N(C)CC(=O)N(C)[C@@H](C(C)C)C(=O)O[C@@H]2C)c(N)c1=O [Dactinomycin] (I: T[dV]P[Sar][NMeV] / II: T[dV]P[Sar][NMeV]; ester I:1-I:C, II:1-II:C; linker I:N-II:N via Actinocin(9to1))	%	-0.066

(1) NS(=O)(=O)OC[C@@H]1C[C@@H](n2ccc3c(N[C@H]4CCc5ccccc54)ncnc32)C[C@@H]1O
(2) COc1ccc(Cl)c(Nc2nc3ccccc3nc2NS(=O)(=O)c2cccc(NC(=O)C(C)(C)N)c2)c1
(3) CCS(=O)(=O)c1cccc(-c2cc(C(=O)NC3CCN(C)CC3)c(C)c3[nH]c4ncc(C)cc4c23)c1
(4) Cc1cnc(NC(=O)Nc2cc(Br)c(C)cc2OC[C@@H]2CNCCO2)cn1
List these items ordered by Plate 1 (% inhibition), big to small. # answer = labels listed in requested order
2, 1, 3, 4

---

# system: human AspH (His6-AspH315–758) (Homo sapiens)
# Construct: N-Terminally His6-tagged human AspH315–758 (His6-AspH315–758) was produced in Escherichia coli BL21 (DE3) cells; made in house; host or cells: Escherichia coli BL21 (DE3), pET-28a(+) vector
# Sequence (Q12797 315-758): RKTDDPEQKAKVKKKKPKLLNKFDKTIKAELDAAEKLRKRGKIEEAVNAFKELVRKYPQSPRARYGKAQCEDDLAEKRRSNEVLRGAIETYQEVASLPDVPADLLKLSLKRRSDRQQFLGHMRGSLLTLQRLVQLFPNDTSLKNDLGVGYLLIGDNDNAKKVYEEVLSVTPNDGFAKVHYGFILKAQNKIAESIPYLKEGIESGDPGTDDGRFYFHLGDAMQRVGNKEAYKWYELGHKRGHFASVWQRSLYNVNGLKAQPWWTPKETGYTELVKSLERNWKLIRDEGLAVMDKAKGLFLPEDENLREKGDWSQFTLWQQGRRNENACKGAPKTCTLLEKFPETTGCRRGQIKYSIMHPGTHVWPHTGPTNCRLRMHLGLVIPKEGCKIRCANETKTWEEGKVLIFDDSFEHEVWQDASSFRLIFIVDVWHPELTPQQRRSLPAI
# test summary: SPE-MS AspH inhibition assay (hFX-CP101-119 substrate hydroxylation)
# Assay type: biochemical
# stated conditions: AspH-inhibitor screening, 384-well Plate 1, substrate conversion
observation type: Plate 1 (% conversion) (%)

> print(dat)
                                   molecule  recorded.value
1  O=C1CN2Cc3c(ccc(Cl)c3Cl)N=C2N1 [Anagrelide]           49.49
2  Cc1cc(C(C)Nc2ccccc2)c2nc(N3CCOCC3)cc(=O)n2c1 (stereo not shown)           50.47
3  Cc1c(CN2CCN(C(=O)[C@H](C)O)CC2)sc2c(N3CCOCC3)nc(-c3cnc(N)nc3)nc12           48.62
4  O=C(Nc1c[nH]nc1-c1nc2ccc(CN3CCOCC3)cc2[nH]1)NC1CC1           49.79

---

# system: human AspH (His6-AspH315–758) (Homo sapiens, UniProt Q12797)
# Construct: N-Terminally His6-tagged human AspH315–758 (His6-AspH315–758) was produced in Escherichia coli BL21 (DE3) cells; made in house; host or cells: Escherichia coli BL21 (DE3), pET-28a(+) vector
# test summary: SPE-MS AspH inhibition assay (hFX-CP101-119 substrate hydroxylation)
# Format: biochemical
# stated conditions: AspH-inhibitor screening, 384-well Plate 1
observation type: Plate 1 (% inhibition) (%)

compound	observation type	recorded value
CC1(C)CCC(CN2CCN(c3ccc(C(=O)NS(=O)(=O)c4ccc(NCC5CCOCC5)c([N+](=O)[O-])c4)c(Oc4cnc5[nH]ccc5c4)c3)CC2)=C(c2ccc(Cl)cc2)C1 [Venetoclax, reference compound]	Plate 1 (% inhibition)	97.05
CNC(=O)c1cc(Oc2ccc(NC(=O)Nc3ccc(Cl)c(C(F)(F)F)c3)c(F)c2)ccn1	Plate 1 (% inhibition)	62.82
C[C@]12C=CC(=O)C=C1CC[C@@H]1[C@@H]2C(=O)C[C@@]2(C)[C@H]1CC[C@]2(O)C(=O)CO	Plate 1 (% inhibition)	-2.32
COCC1(CO)C(=O)C2CCN1CC2 (centres unmarked)	Plate 1 (% inhibition)	3.70
Nc1nccc(-c2c(-c3ccc(F)cc3)ncn2C2CCCCC2)n1	Plate 1 (% inhibition)	40.03
N#CC[C@H](C1CCCC1)n1cc(-c2ncnc3[nH]ccc23)cn1 [INCB018424 (free base, Ruxolitinib)]	Plate 1 (% inhibition)	4.31

(P) C[C@]12CC[C@H](O)CC1=CC[C@@H]1[C@@H]2CC[C@]2(C)C(c3cccnc3)=CC[C@@H]12
(Q) CNC(=O)c1ccc(N2C(=S)N(c3ccc(C#N)c(C(F)(F)F)c3)C(=O)C2(C)C)cc1F [MDV3100_Enzaluamide]
# min-compare on Plate 1 (% inhibition) between P and Q Answer with the label corresponding to your selection.
Q
(Q: -7.19%, P: 1.80%)

---

# system: human AspH (His6-AspH315–758) (Homo sapiens)
# Construct: N-Terminally His6-tagged human AspH315–758 (His6-AspH315–758) was produced in Escherichia coli BL21 (DE3) cells; made in house; host or cells: Escherichia coli BL21 (DE3), pET-28a(+) vector
# test summary: SPE-MS AspH inhibition assay (hFX-CP101-119 substrate hydroxylation)
# Type: biochemical
# stated conditions: AspH-inhibitor screening, Plate 1-duplicate, substrate conversion
Where a name gives a salt, the structure may show the parent alone.
observation type: Plate 1-duplicate (% conversion) (%)

Before answering, review these 5 worked examples.
molecule	system	Plate 1-duplicate (% conversion), %
CCN(CC)CCOc1ccc(C(=C(Cl)c2ccccc2)c2ccccc2)cc1 [Clomifene citrate]	human AspH (His6-AspH315–758) (Homo sapiens)	17.97
CC[C@@H]1C(=O)OC[C@@H]1Cc1cncn1C [Pilocarpine]	human AspH (His6-AspH315–758) (Homo sapiens)	43.53
N#Cc1ccc(COC[C@H]2O[C@@H](n3c(NCc4ccc(Cl)c(Cl)c4)nc4c(N)ncnc43)[C@H](O)[C@@H]2O)cc1 [VER 155008]	human AspH (His6-AspH315–758) (Homo sapiens)	48.47
C=CCc1cccc(/C=N/NC(=O)CN2CCN(Cc3ccccc3)CC2)c1O [PAC-1]	human AspH (His6-AspH315–758) (Homo sapiens)	52.23
Oc1nc(-c2ccc(C(F)(F)F)cc2)nc2c1CSCC2 [XAV-939]	human AspH (His6-AspH315–758) (Homo sapiens)	51.75

(P) CC1(C)NC(=O)N(c2ccc([N+](=O)[O-])c(C(F)(F)F)c2)C1=O [Nilutamide]
(Q) CC1(C)CCC(c2ccc(Cl)cc2)=C(CN2CCN(c3ccc(C(=O)NS(=O)(=O)c4ccc(N[C@H](CCN5CCOCC5)CSc5ccccc5)c(S(=O)(=O)C(F)(F)F)c4)cc3)CC2)C1 [ABT-263 (Navitoclax)]
(R) COCCn1c2c([n+](Cc3cnccn3)c1C)C(=O)c1ccccc1C2=O [YM155]
Order these by Plate 1-duplicate (% conversion), descending, and give the full ranking. Write the labels in rank order as requested.
R, P, Q
